- studyTarget: CYP3A4 (Homo sapiens, UniProt P08684)
- Sequence (P08684 whole entry): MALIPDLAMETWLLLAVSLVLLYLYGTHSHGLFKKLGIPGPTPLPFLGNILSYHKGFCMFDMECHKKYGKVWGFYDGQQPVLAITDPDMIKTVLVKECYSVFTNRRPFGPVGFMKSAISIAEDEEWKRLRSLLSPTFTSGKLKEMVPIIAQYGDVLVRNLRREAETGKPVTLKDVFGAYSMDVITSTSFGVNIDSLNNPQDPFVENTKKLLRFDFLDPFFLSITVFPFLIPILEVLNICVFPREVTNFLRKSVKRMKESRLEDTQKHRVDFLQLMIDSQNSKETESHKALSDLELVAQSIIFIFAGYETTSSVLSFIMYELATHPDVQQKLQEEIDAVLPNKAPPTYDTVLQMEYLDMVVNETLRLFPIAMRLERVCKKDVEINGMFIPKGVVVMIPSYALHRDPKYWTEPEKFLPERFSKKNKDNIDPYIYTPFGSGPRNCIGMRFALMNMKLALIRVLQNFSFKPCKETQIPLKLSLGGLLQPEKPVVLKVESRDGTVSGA
- protocolText: Inhibition of CYP 3A4
- Type: in vitro ADME
observedProperty: IC50 (µM)
Numbers only; they are read as µM.

For the compound COc1cccc(C(O)(CCN(C)C)C(c2cc3cc(Br)ccc3nc2OC)c2cccc3c2OCO3)n1 (stereo not shown) , the measured IC50 on CYP3A4 (Homo sapiens, UniProt P08684) was 7.6

* * *

Recorded AUC: exposure, AUCinf for the following molecules
- particulars: mouse, in vivo
Hi! Could you send only the number? It should be in µg·h/mL, unit omitted.

In plain terms, COc1cccc(C(c2cc3cc(C#N)ccc3nc2OC)C(O)(CCN(C)C)c2cc(C)nc(C)c2)c1OC (stereo not shown) [Compound 57] has a documented AUC: exposure, AUCinf of 1.48

---
Item: CCOc1cc(C(O)(CCN(C)C)C(c2cc(OC)nc(OC)c2)c2cc3cc(Br)ccc3nc2OC)cc(OC(C)C)n1 (stereo not shown) [Compound 62] | AUC: exposure, AUCinf: 33.0

Form field AUC: exposure, AUCinf, entry COc1cccc(C(c2cc3cc(Br)ccc3nc2OC)C(O)(CCN(C)C)c2cnc(C)cc2C)c1OC (stereo not shown) [Compound 38] : 2.08

Memo: COc1nc2ccc(Br)cc2cc1C(c1cccc(C)c1)C(O)(CCN(C)C)c1cccnc1C (stereo not shown) [Compound 19] , reported AUC: exposure, AUCinf: 0.40

* * *

microsomal CLint listing for selected compounds.
- protocolText: in vitro
- particulars: mouse, microsomes
Numbers only here, please. The scale is µL/min/mg.

Entry COc1cc(C(O)(CCN(C)C)C(c2cc3cc(Br)ccc3nc2OC)c2ccnc(OC)c2OC)cnc1OC (stereo not shown) ; microsomal CLint = 59

***
Data point: COc1cccc(C(c2cc3cc(Br)ccc3nc2OC)C(O)(CCN(C)C)c2cc(C)cnc2C)c1OC (stereo not shown) ; microsomal CLint = 17

Summary for this compound, COc1nc2ccc(C#N)cc2cc1C(c1cccc(C)c1)C(O)(CCN(C)C)c1cccnc1OC (stereo not shown) : microsomal CLint is 53

// sample COc1cccc(C(O)(CCN(C)C)C(c2cc3cc(Br)ccc3nc2OC)c2cccc3c2OCO3)n1 (stereo not shown) , its microsomal CLint was 25

* * *

- protocolText: Clearance by mouse liver microsomes
observedProperty: microsomal CLint (µL/min/mg)
Could you give me the number in µL/min/mg? Just the number is fine.

Quick note, microsomal CLint for CCOc1cc(C(O)(CCN(C)C)C(c2cc3cc(Br)ccc3nc2OC)c2ccnc(OC)c2OC)cc(OC(C)C)n1 (stereo not shown) landed at 7

* * *

- studyTarget: hERG potassium channel (Homo sapiens)
- Sequence (Q12809 whole entry): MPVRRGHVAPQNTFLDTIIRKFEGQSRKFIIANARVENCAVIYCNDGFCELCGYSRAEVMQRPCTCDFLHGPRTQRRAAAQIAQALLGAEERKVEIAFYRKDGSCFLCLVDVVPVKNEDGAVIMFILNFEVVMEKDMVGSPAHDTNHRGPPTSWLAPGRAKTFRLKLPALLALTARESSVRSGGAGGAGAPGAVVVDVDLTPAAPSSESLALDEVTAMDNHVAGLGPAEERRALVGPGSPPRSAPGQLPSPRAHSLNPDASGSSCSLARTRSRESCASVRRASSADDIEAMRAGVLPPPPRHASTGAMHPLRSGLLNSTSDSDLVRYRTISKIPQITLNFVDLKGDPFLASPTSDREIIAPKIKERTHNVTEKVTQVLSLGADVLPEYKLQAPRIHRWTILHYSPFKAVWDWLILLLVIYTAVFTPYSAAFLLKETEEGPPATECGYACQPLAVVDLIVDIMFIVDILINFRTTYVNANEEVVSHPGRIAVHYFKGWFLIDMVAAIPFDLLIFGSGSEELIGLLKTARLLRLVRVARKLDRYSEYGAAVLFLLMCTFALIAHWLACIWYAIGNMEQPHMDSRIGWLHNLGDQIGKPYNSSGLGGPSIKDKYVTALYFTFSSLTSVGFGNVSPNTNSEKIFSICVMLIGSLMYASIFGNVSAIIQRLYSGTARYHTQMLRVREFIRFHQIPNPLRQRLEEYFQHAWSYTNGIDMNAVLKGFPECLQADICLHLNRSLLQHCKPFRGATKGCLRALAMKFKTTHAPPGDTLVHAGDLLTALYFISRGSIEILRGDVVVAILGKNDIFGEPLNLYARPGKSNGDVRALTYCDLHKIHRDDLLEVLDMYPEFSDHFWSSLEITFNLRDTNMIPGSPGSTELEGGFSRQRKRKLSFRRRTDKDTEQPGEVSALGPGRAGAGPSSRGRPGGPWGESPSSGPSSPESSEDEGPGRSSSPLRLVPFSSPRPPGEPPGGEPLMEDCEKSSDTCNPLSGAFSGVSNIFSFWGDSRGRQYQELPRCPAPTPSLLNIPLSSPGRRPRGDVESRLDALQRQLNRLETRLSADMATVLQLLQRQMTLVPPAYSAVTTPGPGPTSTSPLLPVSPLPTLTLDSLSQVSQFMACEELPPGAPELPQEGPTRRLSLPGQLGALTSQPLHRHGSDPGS
- protocolText: Inhibition of hERG potassium current (patch clamp electrophysiology)
- particulars: read-out: hERG IC50; manual patch clamp, 5-concentration dose-response
pIC50: −log10 of the molar value.
Label met when pIC50 is at or above 6; anything below gets not met.

Below are worked cases with known answers.
Prompt line: Is it the case that COc1cc(C(O)(CCN(C)C)C(c2cc3cc(Br)ccc3nc2OC)c2ccnc(OC)c2OC)c(OC)nc1OC (centres unmarked) has pIC50 reaching or exceeding 6?
Response line: not met

Prompt line: Is it the case that COc1cccc(C(c2cc3cc(C#N)ccc3nc2OC)C(O)(CCN(C)C)c2cc(C)nc(C)c2)c1OC (centres unmarked) has pIC50 reaching or exceeding 6?
Response line: not met

Prompt line: Has COc1cc(C(O)(CCN(C)C)C(c2cc3cc(Br)ccc3nc2OC)c2ccnc(OC)c2OC)cnc1OC (centres unmarked) a recorded pIC50 greater than or equal to 6?
Response line: not met

Prompt line: Hi, just wondering whether COc1cnc(OC)c(C(O)(CCN(C)C)C(c2cc3cc(Br)ccc3nc2OC)c2cccc(OC)c2F)c1 (centres unmarked) shows pIC50 of 6 or higher.
Response line: not met

Prompt line: Textbook exercise: given the entry COc1cccc(C(O)(CCN(C)C)C(c2cc3cc(Br)ccc3nc2OC)c2cccc3c2OCO3)n1 (centres unmarked) , state whether its pIC50 is greater than or equal to 6.
Response line: met

Prompt line: Answer whether pIC50 of COc1cccc(C(c2cc3cc(Br)ccc3nc2OC)C(O)(CCN(C)C)c2cnc(C)cc2C)c1OC (centres unmarked) is greater than or equal to 6.
Response line: not met

Prompt line: Quick check: does COc1cc(C(O)(CCN(C)C)C(c2cc3cc(Br)ccc3nc2OC)c2cccc(OC)c2F)c(OC)cn1 (centres unmarked) have pIC50 greater than or equal to 6?
Response line: not met

Prompt line: Entry COc1nc2ccc(C#N)cc2cc1C(c1cccc(C)c1)C(O)(CCN(C)C)c1cccnc1OC (centres unmarked) : is its pIC50 no less than 6?
Response line: met

Prompt line: # bool: pIC50 of COc1nc2ccc(Br)cc2cc1C(c1cccc(C)c1)C(O)(CCN(C)C)c1cccnc1OC (centres unmarked) >= 6
Response line: met

From here, focus on the item given below.
Prompt line: Determine whether measured pIC50 meets or exceeds 6 for CCOc1cc(C(O)(CCN(C)C)C(c2cc(OC)nc(OC)c2)c2cc3cc(Br)ccc3nc2OC)cc(OC(C)C)n1 (centres unmarked)
Response line: not met
